Source listed as PubChem BioAssay AID1963851.

Tested on: 188146-221-R-J1-PDC complex spheroid viability;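 also: spheroids exposed to compounds for seven days; 100% = DMSO vehicle control viability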
Experiment: Anticancer human tumor 188146-221-R-J1-PDC patient-derived colon adenocarcinoma cell line growth inhibition [POLQ]
Conditions: second compound 10 µM; first compound 1 µM; active compounds read low
Method: Multicellular complex tumor spheroid response to Polymerase (POL) inhibitors (novobiocin, ART-558, RP6685) in combination with a variety of drugs and investigational agents in selected tumor cell lines The POL inhibitors (novobiocin, ART-558, and RP6685) were evaluated both individually and in combination with standard of care and investigational anticancer small molecules within a complex spheroid model of solid tumors. . […]
In this section, each of the molecules is paired with its reported viability, T/C.

MOLECULE	viability, T/C [%]
CCc1cc2c(N3CCc4c(cc(Cn5ccnc5)cc4-c4cn(C)nc4C(F)(F)F)C3=O)cc(C)nc2c(OC)n1 + Cc1cccc(N(C)C(=O)C2C(O)CCN2c2nc(C)cc(C(F)(F)F)c2C#N)c1	71.1
C=CCn1c(=O)c2cnc(Nc3ccc(N4CCN(C)CC4)cc3)nc2n1-c1cccc(C(C)(C)O)n1 + Nc1ccc(C#CCN(C(=O)Cc2ncc(C(F)(F)F)cc2C(F)(F)F)c2ccc(F)cc2)nn1	37.2
O=C(c1cc(Cc2n[nH]c(=O)c3ccccc23)ccc1F)N1CCN(C(=O)C2CC2)CC1 + COC1C(OC(N)=O)C(O)C(Oc2ccc3c(O)c(NC(=O)c4ccc(O)c(CC=C(C)C)c4)c(=O)oc3c2C)OC1(C)C	97.1
CC1COCCN1c1cc(C2(O)CC3CCC(C2)O3)c2cnn(-c3ccn[nH]3)c2n1 (stereo not given) + Cc1cccc(N(C)C(=O)C2C(O)CCN2c2nc(C)cc(C(F)(F)F)c2C#N)c1	24
C#Cc1c(F)ccc2cc(O)cc(-c3ncc4c(N5CC6CCC(C5)N6)nc(OCC56CCCN5CC(F)C6)nc4c3F)c12 (stereo not given) + Nc1ccc(C#CCN(C(=O)Cc2ncc(C(F)(F)F)cc2C(F)(F)F)c2ccc(F)cc2)nn1	105
COc1cc(C2c3cc4c(cc3C(OC3OC5COC(C)OC5C(O)C3O)C3COC(=O)C23)OCO4)cc(OC)c1O (stereo not given) + Cc1cccc(N(C)C(=O)C2C(O)CCN2c2nc(C)cc(C(F)(F)F)c2C#N)c1	32.4
CCc1cc2c(N3CCc4c(cc(Cn5ccnc5)cc4-c4cn(C)nc4C(F)(F)F)C3=O)ccnc2c(OC)n1 + Nc1ccc(C#CCN(C(=O)Cc2ncc(C(F)(F)F)cc2C(F)(F)F)c2ccc(F)cc2)nn1	82.5
CC1COCCN1c1cc(C2(O)CC3CCC(C2)O3)c2cnn(-c3ccn[nH]3)c2n1 (stereo not given) + COC1C(OC(N)=O)C(O)C(Oc2ccc3c(O)c(NC(=O)c4ccc(O)c(CC=C(C)C)c4)c(=O)oc3c2C)OC1(C)C	22.8
CCc1c2c(nc3ccc(O)cc13)-c1cc3c(c(=O)n1C2)COC(=O)[C@]3(O)CC + COC1C(OC(N)=O)C(O)C(Oc2ccc3c(O)c(NC(=O)c4ccc(O)c(CC=C(C)C)c4)c(=O)oc3c2C)OC1(C)C	9.35
COc1cc(C2c3cc4c(cc3C(OC3OC5COC(C)OC5C(O)C3O)C3COC(=O)C23)OCO4)cc(OC)c1O (stereo not given) + COC1C(OC(N)=O)C(O)C(Oc2ccc3c(O)c(NC(=O)c4ccc(O)c(CC=C(C)C)c4)c(=O)oc3c2C)OC1(C)C	54.1
